Attribution: ChEMBL document CHEMBL1138229

# System: DNA
# Procedure summary: Binding affinity to calf thymus DNA by thermal melting temperature assay
# Assay type: nucleic-acid assay
# Condition details: Bos taurus
Assay endpoint: ΔTm (°C)

• Cl.N=C(NN1CCOCC1)c1ccc2nc3ccc4ccccc4n3c2c1 = 3.2
• C(=C/c1nc2ccc(C3=NCCN3)cc2[nH]1)/c1ccccc1.Cl = 1
• N=C(N)c1ccc2ccc3nc4ccccc4n3c2c1 = 5.2
• N=C(N)c1ccc2nc(/C=C\c3ccccc3)[nH]c2c1 = -0.5
• CC(C)NC(=N)c1ccc2nc(/C=C/c3ccccc3)[nH]c2c1 = 1.1
• CC(C)NC(=N)c1ccc2nc(/C=C\c3ccccc3)[nH]c2c1 = 1.2

[A] N=C(NN1CCOCC1)c1ccc2ccc3nc4ccccc4n3c2c1
[B] N=C(N)c1ccc2nc(/C=C/c3ccccc3)[nH]c2c1
Inquiry: Of the two listed items, A and B , which carries the larger ΔTm figure? Indicate which entry you chose by stating its label.
Reply text: A
(A: 3.2 °C, B: 0.7 °C)

[A] c1ccc2c(c1)nc1ccc3ccc(C4=NCCN4)cc3n12
[B] N=C(NN1CCOCC1)c1ccc2nc(/C=C\c3ccccc3)[nH]c2c1
[C] N=C(NN1CCOCC1)c1ccc2nc(/C=C/c3ccccc3)[nH]c2c1
Inquiry: Task field, ranking: reported ΔTm, descending order. // respond by listing labels in the order requested
Reply text: A, B, C
(A: 3.6 °C, B: 1.3 °C, C: 0.1 °C)

[P] CC(C)NC(=N)c1ccc2nc3ccc4ccccc4n3c2c1
[Q] C(=C\c1nc2ccc(C3=NCCN3)cc2[nH]1)/c1ccccc1
Inquiry: Of the two listed items, P and Q , which carries the larger ΔTm figure? Indicate which entry you chose by stating its label.
Reply text: P
(P: 3.7 °C, Q: 1.4 °C)

---

# Tested on: HeLa
# Procedure summary: Antitumor activity against human HeLa cells after 72 hrs by MTT assay
# Format: functional, cell-based
Assay endpoint: IC50 (µM)

- C(=C\c1nc2ccc(C3=NCCN3)cc2[nH]1)/c1ccccc1: 4
- Clc1ccccc1/C=C/c1nc2ccc(C3=NCCN3)cc2[nH]1: 4
- N#Cc1ccc2c(c1)nc1ccc3ccccc3n12: 4
- N=C(N)c1ccc2nc3ccc4ccccc4n3c2c1: 5

[I] CC(C)NC(=N)c1ccc2nc3ccc4ccccc4n3c2c1
[II] N=C(N)c1ccc2nc(/C=C/c3ccccc3Cl)[nH]c2c1
[III] CC(C)NC(=N)c1ccc2ccc3nc4ccccc4n3c2c1
Inquiry: Task field, ranking: reported IC50, descending order. // respond by listing labels in the order requested
Reply text: II, I, III
(II: 7.5 µM, I: 4 µM, III: 1.7 µM)

---

# Tested on: DNA
# Procedure summary: Binding affinity to calf thymus DNA by thermal melting temperature assay
# Type: nucleic-acid assay
# Condition details: Bos taurus
Assay endpoint: ΔTm (°C)

* Cl.c1ccc2c(c1)ccc1nc3ccc(C4=NCCN4)cc3n12 | 4.9
* N=C(N)c1ccc2nc3ccc4ccccc4n3c2c1 | 3.6
* CC(C)NC(=N)c1ccc2ccc3nc4ccccc4n3c2c1 | 5
